target: human CD33 H57A (human, UniProt P20138 18-364); assay: alanine scan, flow cytometry;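 note: HEK293-T cells transiently expressing single-residue alanine mutants of CD33 (alanine swapped to serine), antibody binding read by fluorescence in duplicate, background-subtracted, expressed relative to wild-type CD33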
Sequence (P20138 18-364 H57A limits assumed): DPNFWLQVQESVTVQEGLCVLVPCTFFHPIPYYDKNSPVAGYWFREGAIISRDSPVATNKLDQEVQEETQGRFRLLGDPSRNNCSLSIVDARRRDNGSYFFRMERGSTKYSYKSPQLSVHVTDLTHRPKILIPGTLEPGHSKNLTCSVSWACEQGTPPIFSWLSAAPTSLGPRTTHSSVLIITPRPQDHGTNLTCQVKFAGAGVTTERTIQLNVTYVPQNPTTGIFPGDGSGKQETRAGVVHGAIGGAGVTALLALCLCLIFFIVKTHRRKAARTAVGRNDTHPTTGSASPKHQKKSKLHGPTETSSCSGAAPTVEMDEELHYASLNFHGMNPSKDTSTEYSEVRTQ
Measured Mean % WT Binding by item
Respond with the bare value in % WT.

binder	Mean % WT Binding (% WT)
Refmab #4 (antibody, V domains shown, Full-length format is human IgG1 Fc silent (PG-LALA); The alanine scan used IgG or Fab) VH: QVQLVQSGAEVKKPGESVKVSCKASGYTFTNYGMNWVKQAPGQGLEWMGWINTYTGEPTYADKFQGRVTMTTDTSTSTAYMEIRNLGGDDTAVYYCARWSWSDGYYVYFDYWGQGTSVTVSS VL: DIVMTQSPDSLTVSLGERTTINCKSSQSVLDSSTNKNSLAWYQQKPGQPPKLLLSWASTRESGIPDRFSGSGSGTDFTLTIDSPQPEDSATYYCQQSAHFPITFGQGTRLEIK	67.3
Refmab #1 (antibody, V domains shown, Full-length format is human IgG1 (Absolute Antibody Ab00283-10.0); The alanine scan used IgG or Fab; also called hP67.6) VH: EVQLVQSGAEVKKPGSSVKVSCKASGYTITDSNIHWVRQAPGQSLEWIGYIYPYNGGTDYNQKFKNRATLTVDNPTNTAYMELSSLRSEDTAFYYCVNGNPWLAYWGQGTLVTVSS VL: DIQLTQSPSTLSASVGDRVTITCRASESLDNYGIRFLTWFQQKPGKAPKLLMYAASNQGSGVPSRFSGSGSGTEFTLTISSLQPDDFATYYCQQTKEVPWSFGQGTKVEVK	78.2
Refmab #2 (antibody, V domains shown, Full-length format is human IgG1 Fc silent (PG-LALA); The alanine scan used IgG or Fab) VH: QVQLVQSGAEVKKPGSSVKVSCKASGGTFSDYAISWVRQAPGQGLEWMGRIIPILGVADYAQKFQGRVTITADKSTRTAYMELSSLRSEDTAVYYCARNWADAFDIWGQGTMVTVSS VL: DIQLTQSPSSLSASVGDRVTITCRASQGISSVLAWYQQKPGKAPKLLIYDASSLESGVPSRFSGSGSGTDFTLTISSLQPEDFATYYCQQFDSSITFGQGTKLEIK	112

Item under review: Refmab #3 (antibody, V domains shown, Full-length format is human IgG1 Fc silent (PG-LALA); The alanine scan used IgG or Fab) VH: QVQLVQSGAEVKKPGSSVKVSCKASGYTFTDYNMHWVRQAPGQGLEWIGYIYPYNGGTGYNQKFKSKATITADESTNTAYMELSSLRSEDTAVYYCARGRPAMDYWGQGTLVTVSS VL: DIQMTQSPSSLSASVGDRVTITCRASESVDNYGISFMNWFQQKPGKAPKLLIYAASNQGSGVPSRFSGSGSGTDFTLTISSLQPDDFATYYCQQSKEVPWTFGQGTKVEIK . Reported Mean % WT Binding?
182
